# target.under.test: Influenza virus A/California/7/2009pdm (H1N1pdm) (Influenza A virus A/California/7/2009pdm (H1N1pdm))
# assay.text: ELISA on coated viral particles; also: test concentration or dose not given here
measure: Binding activity (absorbance at 492 nm)

# binder, value
rows = [
    ("Group 65 representative clone F083-366, Fab-cp3-type antibody (Fab, V domains shown) VH: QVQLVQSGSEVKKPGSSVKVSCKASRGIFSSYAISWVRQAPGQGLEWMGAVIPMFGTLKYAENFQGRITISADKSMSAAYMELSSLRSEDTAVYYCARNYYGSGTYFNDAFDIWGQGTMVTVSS VL: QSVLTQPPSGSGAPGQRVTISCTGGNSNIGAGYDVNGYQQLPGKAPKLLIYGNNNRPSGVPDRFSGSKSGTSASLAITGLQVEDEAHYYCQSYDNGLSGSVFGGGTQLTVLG", 1.13),
]
